assayed-system: Galectin-3 (Homo sapiens)
Sequence (P17931 whole entry): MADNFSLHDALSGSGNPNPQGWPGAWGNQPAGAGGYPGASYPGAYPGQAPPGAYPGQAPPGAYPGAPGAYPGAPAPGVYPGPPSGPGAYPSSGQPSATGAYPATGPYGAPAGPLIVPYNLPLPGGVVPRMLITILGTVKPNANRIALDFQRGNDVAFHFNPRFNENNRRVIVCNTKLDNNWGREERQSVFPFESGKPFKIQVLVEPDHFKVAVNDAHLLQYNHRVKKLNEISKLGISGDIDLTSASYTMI
experiment-summary: fluorescence anisotropy assay, compound as inhibitor of galectin / fluorescein tagged saccharide probe interaction

compound	Kd [nM]
CO[C@@H]1[C@@H](n2cc(-c3csc(N)n3)nn2)[C@@H](O)[C@@H](CO)O[C@@H]1Sc1cc(Cl)cnc1C#N [Example 17]	1900
CNC(=O)c1ccc(Br)cc1S[C@H]1OC(CO)[C@H](O)C(n2cc(-c3nccs3)nn2)C1OC (stereo partly shown) [Example 61]	3000
OC[C@H]1O[C@H](Sc2cncc(Br)c2)[C@H](O)[C@@H](n2cc(-c3nc(Cl)cs3)nn2)[C@H]1O [Example 49]	190
CO[C@@H]1[C@@H](n2cc(-c3nc(C)cs3)nn2)[C@@H](O)[C@@H](CO)O[C@@H]1Sc1cc(C)cnc1C#N [Example 35]	9000
